- Test Protocol: inhibitors of intracellular Trypanosoma cruzi, primary screen, cell-based, plate reader, single point, set 2 (AID 651903);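 further: parasites and compound incubated about four days before reading; 0% = median of neutral control wells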
- Assay Conditions: intracellular Trypanosoma cruzi in host cells, at 5.01 µM, active compounds read high
In all, about 22,000 compounds went through this assay and about 1,100 (5%) were called active. The sample as a whole holds a higher share of actives than the screen did.
Would you mind labelling by activity score (inhibition)? At or over 20% is 1.0, under is 0.0.

# Smiles Representation, Category
records = [
    ("CC(C)NC(=O)N(C)C[C@@H]1OCCCC[C@@H](C)Oc2ccc(NC(=O)Nc3ccccc3)cc2C(=O)N([C@H](C)CO)C[C@@H]1C", 0.0),
    ("C[C@@H]1CN([C@@H](C)CO)C(=O)Cc2cc(NC(=O)Nc3ccccc3)ccc2O[C@@H]1CN(C)S(=O)(=O)c1ccc(F)cc1", 0.0),
    ("COc1ccc(S(=O)(=O)Nc2ccc3c(c2)C(=O)N([C@@H](C)CO)C[C@@H](C)[C@@H](CN(C)S(C)(=O)=O)O3)cc1", 0.0),
    ("C[C@@H]1CN([C@@H](C)CO)C(=O)c2cc(NC(=O)c3ccncc3)ccc2O[C@H]1CN(C)Cc1ccc(C(=O)O)cc1", 0.0),
    ("C[C@@H]1CN([C@H](C)CO)C(=O)c2cc(NC(=O)CCCCCC(=O)Nc3ccccc3N)ccc2O[C@@H]1CN(C)S(=O)(=O)c1ccc(Cl)cc1", 0.0),
    ("C[C@H](CO)N1C[C@H](C)[C@@H](CN(C)Cc2ccc(C(F)(F)F)cc2)Oc2ccc(NC(=O)CCC(F)(F)F)cc2C1=O", 0.0),
    ("C[C@H]1CN([C@@H](C)CO)C(=O)c2cc(NC(=O)Nc3ccc4c(c3)OCO4)ccc2O[C@@H]1CN(C)Cc1ccc(Oc2ccccc2)cc1", 1.0),
    ("C[C@@H]1CN([C@@H](C)CO)C(=O)c2cc(NC(=O)c3ccncc3)ccc2O[C@@H]1CN(C)Cc1ccncc1", 0.0),
    ("C[C@@H]1CCCCO[C@@H](CN(C)Cc2ccc(C(F)(F)F)cc2)[C@@H](C)CN([C@H](C)CO)C(=O)c2cc(NC(=O)Nc3ccccc3)ccc2O1", 1.0),
    ("COc1ccc(S(=O)(=O)Nc2ccc3c(c2)C(=O)N([C@H](C)CO)C[C@H](C)[C@H](CN(C)Cc2ccc(C(F)(F)F)cc2)O3)cc1", 1.0),
    ("O=C(O)c1cccc(/C=N/NC(=O)c2cccc(C(=O)NO)c2)c1", 0.0),
    ("C[C@@H]1CN([C@H](C)CO)C(=O)c2cccc(NC(=O)c3nc4ccccc4s3)c2O[C@@H]1CN(C)Cc1ccc(Oc2ccccc2)cc1", 1.0),
    ("C[C@@H]1CN([C@H](C)CO)C(=O)c2cc(NC(=O)Cc3cn(C)c4ccccc34)ccc2O[C@H]1CN(C)S(C)(=O)=O", 0.0),
    ("COc1cc(/C=N\\NC(=O)CCCCCCC(=O)NO)c(Br)cc1O", 1.0),
    ("C[C@H]1CN([C@@H](C)CO)C(=O)Cc2cc(NC(=O)Cc3ccccc3)ccc2O[C@H]1CN(C)S(=O)(=O)c1ccc(Cl)cc1", 1.0),
    ("C[C@H](CO)N1C[C@H](C)[C@H](CN(C)C(=O)Nc2ccc3c(c2)OCO3)Oc2ccc(NC(=O)Nc3ccccc3)cc2CC1=O", 0.0),
    ("C[C@H]1CN([C@@H](C)CO)C(=O)c2cccc(NS(C)(=O)=O)c2O[C@@H]1CN(C)C(=O)Nc1ccc(F)cc1", 0.0),
    ("C[C@@H]1CN([C@@H](C)CO)C(=O)Cc2cc(NC(=O)C3CCCCC3)ccc2O[C@@H]1CN(C)Cc1ccc(-c2ccccc2)cc1", 1.0),
    ("C[C@H](CO)N1C[C@H](C)[C@H](CN(C)C(=O)Nc2ccc3c(c2)OCO3)Oc2ccc(NS(=O)(=O)c3ccc(Cl)cc3)cc2CC1=O", 0.0),
    ("C[C@H](CO)N1C[C@H](C)[C@@H](CN(C)Cc2ccccc2)Oc2ccc(NC(=O)Nc3ccc4c(c3)OCO4)cc2C1=O", 0.0),
    ("CC(C)NC(=O)Nc1ccc2c(c1)C(=O)N([C@H](C)CO)C[C@H](C)[C@H](CN(C)Cc1ccc(C(=O)O)cc1)OCCCC[C@@H](C)O2", 0.0),
    ("C[C@H]1CN([C@@H](C)CO)C(=O)c2cccc(NC(=O)c3cnccn3)c2O[C@@H]1CN(C)Cc1ccc(Oc2ccccc2)cc1", 1.0),
    ("C[C@H](CO)N1C[C@H](C)[C@H](CN(C)C(=O)Nc2ccc(F)cc2)Oc2ccc(NC(=O)Cc3cn(C)c4ccccc34)cc2CC1=O", 0.0),
    ("CC(C)NC(=O)Nc1ccc2c(c1)C(=O)N([C@H](C)CO)C[C@H](C)[C@H](CN(C)C(=O)Nc1ccc(C(F)(F)F)cc1)OCCCC[C@@H](C)O2", 1.0),
    ("C[C@@H]1CN([C@@H](C)CO)C(=O)Cc2cc(NC(=O)C3CC3)ccc2O[C@@H]1CN(C)S(C)(=O)=O", 0.0),
    ("C[C@H](CO)N1C[C@H](C)[C@@H](CN(C)S(=O)(=O)c2ccc(F)cc2)Oc2ccc(NC(=O)CCC(F)(F)F)cc2C1=O", 0.0),
    ("C[C@@H]1CN([C@H](C)CO)C(=O)c2cc(NC(=O)c3ccncc3)ccc2O[C@H]1CN(C)Cc1ccc(Oc2ccccc2)cc1", 1.0),
    ("C[C@H]1CN([C@@H](C)CO)C(=O)Cc2cc(NC(=O)Cc3cn(C)c4ccccc34)ccc2O[C@@H]1CN(C)Cc1ccc(C(F)(F)F)cc1", 1.0),
]

* * *

- Test Protocol: inhibitors of intracellular Trypanosoma cruzi, primary screen, cell-based, plate reader, single point, set 2 (AID 651903);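 further: parasites and compound incubated about four days before reading; 0% = median of neutral control wells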
- Assay Conditions: intracellular Trypanosoma cruzi in host cells, at 5.01 µM, active compounds read high
Out of some 22,000 compounds screened, about 1,100 (5%) were called active. Shown is part of a subset that was picked to be rich in actives.
Result Type: activity score (inhibition) (%)

# Smiles Representation, Result Type, Val
rows = [
    ("COc1ccc(CN(C)C[C@H]2Oc3c(NC(=O)c4ccncc4)cccc3C(=O)N([C@H](C)CO)C[C@@H]2C)cc1", "activity score (inhibition)", 80.9),
    ("C[C@H](CO)N1C[C@H](C)[C@H](CN(C)S(C)(=O)=O)Oc2c(NC(=O)c3ccc(-c4nccs4)cc3)cccc2C1=O", "activity score (inhibition)", 9.35),
    ("C[C@H](CO)N1C[C@H](C)[C@@H](CN(C)S(C)(=O)=O)Oc2c(NC(=O)c3ccc(-c4nccs4)cc3)cccc2C1=O", "activity score (inhibition)", -3.29),
    ("C[C@@H]1CN([C@@H](C)CO)C(=O)c2cccc(NC(=O)c3ccc(-c4nccs4)cc3)c2O[C@@H]1CN(C)S(=O)(=O)c1ccccc1", "activity score (inhibition)", 24.8),
    ("COc1ccc(NC(=O)Nc2cccc3c2O[C@@H](CN(C)Cc2ccncc2)[C@H](C)CN([C@H](C)CO)C3=O)cc1", "activity score (inhibition)", -7.67),
    ("C[C@@H]1CN([C@@H](C)CO)C(=O)c2cccc(NC(=O)c3cnccn3)c2O[C@H]1CN(C)Cc1ccc(C(=O)O)cc1", "activity score (inhibition)", 2.36),
    ("C[C@H](CO)N1C[C@H](C)[C@@H](CN(C)S(=O)(=O)c2ccccc2)Oc2c(NC(=O)c3ccc(-c4nccs4)cc3)cccc2C1=O", "activity score (inhibition)", 20.1),
    ("Cc1ccc(S(=O)(=O)N(C)C[C@@H]2Oc3ccc(NC(=O)Cc4ccccc4)cc3CC(=O)N([C@H](C)CO)C[C@H]2C)cc1", "activity score (inhibition)", 4.53),
    ("COc1ccc(NC(=O)Nc2cccc3c2O[C@H](CN(C)Cc2ccncc2)[C@@H](C)CN([C@@H](C)CO)C3=O)cc1", "activity score (inhibition)", 2.96),
    ("C[C@@H]1CN([C@H](C)CO)C(=O)c2cccc(NC(=O)c3cnccn3)c2O[C@@H]1CN(C)Cc1ccncc1", "activity score (inhibition)", -11.1),
    ("C[C@H](CO)N1C[C@H](C)[C@@H](CN(C)Cc2ccc(C(=O)Nc3ccccc3N)cc2)Oc2c(NC(=O)c3ccc(-c4nccs4)cc3)cccc2C1=O", "activity score (inhibition)", 64),
    ("C[C@@H]1CCCCO[C@@H](CN(C)S(=O)(=O)c2cccs2)[C@@H](C)CN([C@H](C)CO)C(=O)c2cc(NC(=O)Nc3ccc(F)cc3)ccc2O1", "activity score (inhibition)", 21.5),
    ("C[C@H]1CN([C@@H](C)CO)C(=O)c2cccc(NC(=O)c3ccc(-c4nccs4)cc3)c2O[C@H]1CN(C)Cc1ccc(C(=O)O)cc1", "activity score (inhibition)", -0.442),
    ("C[C@@H]1CN([C@@H](C)CO)C(=O)c2cccc(NC(=O)c3ccc(-c4nccs4)cc3)c2O[C@@H]1CN(C)Cc1ccncc1", "activity score (inhibition)", 20.7),
]
